biological target: ERK2 (Homo sapiens)
Sequence (P28482 whole entry, species assumed): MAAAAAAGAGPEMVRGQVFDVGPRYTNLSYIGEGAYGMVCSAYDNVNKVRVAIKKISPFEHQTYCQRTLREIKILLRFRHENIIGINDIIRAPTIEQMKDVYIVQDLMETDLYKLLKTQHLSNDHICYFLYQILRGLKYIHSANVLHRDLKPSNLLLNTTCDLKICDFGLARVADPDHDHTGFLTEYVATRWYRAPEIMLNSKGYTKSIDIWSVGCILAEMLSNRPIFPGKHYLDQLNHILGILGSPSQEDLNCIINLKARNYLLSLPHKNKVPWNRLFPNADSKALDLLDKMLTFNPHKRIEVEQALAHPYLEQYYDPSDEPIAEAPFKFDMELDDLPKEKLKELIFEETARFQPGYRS
pIC50: −log10 of the molar value.
quantity: pIC50

Solved cases (3 shown):
COc1ccc(Nc2nccc(-c3sc(C)nc3C)n2)cc1; < 4.30
Cc1nc(C)c(-c2ccnc(Nc3cccc(C#N)c3)n2)s1; < 4.30
Cc1nc(C)c(-c2ccnc(Nc3cccc([N+](=O)[O-])c3)n2)s1; 4.40

Hey, can you go through the list below and give me pIC50 for every item?
1. Cc1nc(C)c(-c2ccnc(Nc3ccc(C(F)(F)F)cc3)n2)s1
2. Cc1nc(N)sc1-c1ccnc(Nc2ccc(I)c([N+](=O)[O-])c2)n1

["< 4.30", "< 4.00"]

###

target: CDK9/cyclin T1 (Homo sapiens, UniProt P50750); assay: CDK9 assay (CTD peptide substrate); assay type: biochemical; conditions: Table 3; read-out: Average IC50 CDK9 cyclin T1
Sequence (P50750 whole entry): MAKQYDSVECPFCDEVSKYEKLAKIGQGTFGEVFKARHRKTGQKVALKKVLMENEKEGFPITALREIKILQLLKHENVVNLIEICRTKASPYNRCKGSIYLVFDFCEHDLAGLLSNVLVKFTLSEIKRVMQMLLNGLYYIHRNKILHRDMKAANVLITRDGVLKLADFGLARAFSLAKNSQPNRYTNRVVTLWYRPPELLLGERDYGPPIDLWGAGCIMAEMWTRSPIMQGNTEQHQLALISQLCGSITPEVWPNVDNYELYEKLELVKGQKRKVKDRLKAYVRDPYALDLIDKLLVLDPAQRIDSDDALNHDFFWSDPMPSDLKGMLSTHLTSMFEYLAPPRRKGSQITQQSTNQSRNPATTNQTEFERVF
Sequence (O60563 whole entry partner): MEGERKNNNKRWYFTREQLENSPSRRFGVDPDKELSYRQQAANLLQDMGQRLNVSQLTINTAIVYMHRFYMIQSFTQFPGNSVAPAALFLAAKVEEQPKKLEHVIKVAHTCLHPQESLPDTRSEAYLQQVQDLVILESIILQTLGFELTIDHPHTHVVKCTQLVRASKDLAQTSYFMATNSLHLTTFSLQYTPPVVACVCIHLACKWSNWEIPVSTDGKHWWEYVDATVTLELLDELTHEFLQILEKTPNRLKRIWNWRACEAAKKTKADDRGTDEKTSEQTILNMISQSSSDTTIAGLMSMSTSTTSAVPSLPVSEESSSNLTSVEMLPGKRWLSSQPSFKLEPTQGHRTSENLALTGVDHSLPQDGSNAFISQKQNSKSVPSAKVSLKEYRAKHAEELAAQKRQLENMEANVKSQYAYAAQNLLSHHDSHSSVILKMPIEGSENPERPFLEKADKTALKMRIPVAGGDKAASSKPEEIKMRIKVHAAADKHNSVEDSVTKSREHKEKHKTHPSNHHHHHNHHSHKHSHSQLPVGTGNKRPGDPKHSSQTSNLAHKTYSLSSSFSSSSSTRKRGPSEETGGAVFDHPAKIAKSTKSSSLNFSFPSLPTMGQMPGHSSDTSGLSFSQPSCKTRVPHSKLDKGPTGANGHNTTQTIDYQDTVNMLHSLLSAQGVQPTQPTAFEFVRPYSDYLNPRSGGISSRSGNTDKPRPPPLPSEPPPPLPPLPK
quantity: log10(IC50) (log10 of the value in nM)
// units: nM (pre-log); metric: IC50; scale: log10

Previously resolved entries follow.
Cc1nc(N)sc1-c1ccnc(Nc2ccc(N(C)C)cc2)n1; 2.38
Cc1nc(C)c(-c2ccnc(Nc3ccc(O)c([N+](=O)[O-])c3)n2)s1; 1.74
Cc1nc(C)c(-c2ccnc(Nc3ccc([N+](C)(C)C)cc3)n2)s1; 2.15
Cc1nc(N)sc1-c1ccnc(Nc2ccc(CCO)cc2)n1; 2.90
CNc1nc(C)c(-c2ccnc(Nc3ccc(I)c([N+](=O)[O-])c3)n2)s1; 2.04
CNc1nc(C)c(-c2ccnc(Nc3ccc(N(C)C)cc3)n2)s1; 2.23
Cc1nc(NCCO)sc1-c1ccnc(Nc2ccc(F)cc2)n1; 0.90
Cc1nc(C)c(-c2ccnc(Nc3cccc(C(F)(F)F)c3)n2)s1; 4.93

// next item, log10(IC50) requested
Record request: log10(IC50) value, item Cc1nc(N(C)C)sc1-c1ccnc(Nc2cccc([N+](=O)[O-])c2)n1 3.85

###

target: CDK4/Cyclin D1 (Homo sapiens, UniProt P11802); assay: CDK4/cyclin D1 kinase assay (GST-Rb phosphorylation); format: biochemical; settings: Table 3; read-out: Average IC50 CDK4 cyclin D1
Sequence (P11802 whole entry, species assumed): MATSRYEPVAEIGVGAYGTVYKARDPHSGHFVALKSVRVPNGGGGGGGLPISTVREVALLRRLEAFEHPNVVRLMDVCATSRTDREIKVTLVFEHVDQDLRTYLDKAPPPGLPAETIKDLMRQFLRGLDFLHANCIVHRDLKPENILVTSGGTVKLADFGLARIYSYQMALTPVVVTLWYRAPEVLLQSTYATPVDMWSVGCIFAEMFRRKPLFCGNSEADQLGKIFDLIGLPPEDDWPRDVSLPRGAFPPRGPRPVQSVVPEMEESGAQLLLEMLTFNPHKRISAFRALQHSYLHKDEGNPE
Sequence (P24385 whole entry partner, species assumed): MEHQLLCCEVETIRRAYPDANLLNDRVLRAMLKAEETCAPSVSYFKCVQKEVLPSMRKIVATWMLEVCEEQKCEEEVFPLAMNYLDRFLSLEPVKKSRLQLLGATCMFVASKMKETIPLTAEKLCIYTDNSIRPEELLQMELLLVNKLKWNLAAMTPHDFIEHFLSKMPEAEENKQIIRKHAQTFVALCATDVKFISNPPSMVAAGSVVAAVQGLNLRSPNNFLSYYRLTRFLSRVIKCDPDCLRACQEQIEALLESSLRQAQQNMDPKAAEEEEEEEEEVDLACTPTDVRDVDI
quantity: IC50 (µM)
Numbers only, in µM.

COc1ccc(Nc2nccc(-c3sc(C)nc3C)n2)cc1N(C)C; 4.1
Cc1nc(C)c(-c2ccnc(Nc3cccc(N)c3)n2)s1; 1.7
Cc1nc(N)sc1-c1ccnc(Nc2cccc(N)c2)n1; 0.5

For CDK4/Cyclin D1 (Homo sapiens, UniProt P11802), provide IC50 of Cc1nc(C)c(-c2ccnc(Nc3ccc(S(=O)(=O)O)cc3)n2)s1 please. 3.8

###

assay: Compound cytotoxicity in PBMC assay plates (MTS cell viability); settings: human, TC50 (concentration decreasing cell viability by 50%), HIV-1WeJo/PBMC
quantity: CC50 at 7 days (nM)
One number for each entry, in nM.

The following molecules have reported results that may help.
Cc1nc(C)c(-c2ccnc(Nc3ccc(N(C)C)cc3)n2)s1; 800
Cc1nc(C)c(-c2ccnc(Nc3ccc(I)cc3)n2)s1; 64000

Next item in the queue.
Recorded CC50 at 7 days of Cc1nc(N)sc1-c1ccnc(Nc2cccc([N+](=O)[O-])c2)n1 , please. 200

###

Kindly supply the reported IC50 values for the records listed here.
molecular target: CDK1/Cyclin B (Homo sapiens); test: CDK1/cyclin B kinase assay (GST-Rb phosphorylation);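 further: Enzyme: His-tagged CDK1/Cyclin B co-expressed in baculovirus-infected Sf9 insect cells, purified via metal-chelate chromatography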
Sequence (P06493 whole entry, species assumed): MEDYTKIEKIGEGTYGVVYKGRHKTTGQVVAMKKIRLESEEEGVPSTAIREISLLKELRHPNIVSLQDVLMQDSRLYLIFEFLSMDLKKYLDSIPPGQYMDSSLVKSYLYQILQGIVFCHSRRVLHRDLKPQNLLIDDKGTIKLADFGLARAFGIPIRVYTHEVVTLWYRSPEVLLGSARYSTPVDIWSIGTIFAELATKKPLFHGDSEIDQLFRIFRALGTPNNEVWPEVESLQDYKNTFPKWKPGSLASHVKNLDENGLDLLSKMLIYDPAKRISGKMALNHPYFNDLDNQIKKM
Sequence (P14635 whole entry partner, species assumed): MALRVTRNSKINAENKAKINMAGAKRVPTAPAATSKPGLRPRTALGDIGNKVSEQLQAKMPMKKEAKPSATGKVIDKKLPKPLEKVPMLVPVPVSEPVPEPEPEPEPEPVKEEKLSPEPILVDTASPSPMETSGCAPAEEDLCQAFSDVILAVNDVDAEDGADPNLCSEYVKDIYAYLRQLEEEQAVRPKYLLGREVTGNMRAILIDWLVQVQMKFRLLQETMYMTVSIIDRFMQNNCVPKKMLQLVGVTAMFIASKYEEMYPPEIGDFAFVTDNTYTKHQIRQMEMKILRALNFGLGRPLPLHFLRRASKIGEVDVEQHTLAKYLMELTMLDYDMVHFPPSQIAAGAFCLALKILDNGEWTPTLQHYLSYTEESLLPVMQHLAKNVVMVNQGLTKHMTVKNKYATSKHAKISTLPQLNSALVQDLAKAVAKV
Answers are plain numbers, in µM.

Provide reported IC50 for each item, in the same order as listed.
1. Cc1c(-c2ccnc(Nc3ccc(F)c([N+](=O)[O-])c3)n2)sc(=O)n1C [Compound 159]
2. Cc1ccc(Nc2nccc(-c3sc(=O)n(C)c3C)n2)cc1[N+](=O)[O-] [Compound 163]

1: 0.82; 2: 0.096

###

system: CaMKII; type: biochemical; details: Table 2
Please respond with reported IC50 for every item in the list.

COc1ccc(Nc2nccc(-c3sc(C)nc3C)n2)cc1; > 50 µM
Cc1nc(C)c(-c2ccnc(Nc3ccc(F)cc3F)n2)s1; > 50 µM

Shift focus to the following entry.
Fill in the blank: the reported IC50 of Cc1nc(N)sc1-c1ccnc(Nc2ccc(I)c([N+](=O)[O-])c2)n1 is ____. > 100 µM

###

molecular target: CDK2/Cyclin E (Homo sapiens, UniProt P24941); construct: His; made in house; host or cells: Sf9 insect cells (baculovirus); experiment: CDK2/cyclin E kinase assay (GST-Rb phosphorylation); assay type: biochemical; details: Table 2; read-out: Average IC50 CDK2 cyclin E1;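 further: enzyme source: His-tagged CDK2/cyclin E complex co-expressed recombinantly in Sf9 insect cells using baculovirus constructs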
quantity: IC50

Cc1nc(C)c(-c2ccnc(Nc3ccc(F)cc3F)n2)s1 [Compound 9]; 6300 nM
Cc1nc(C)c(-c2ccnc(Nc3cccc(C#N)c3)n2)s1 [Compound 36]; 390 nM
Cc1nc(N)sc1-c1ccnc(Nc2ccc(I)c([N+](=O)[O-])c2)n1 [Compound 117]; 280 nM

Shifting focus to the compound that follows.
Would you kindly share the measured IC50 for Cc1nc(N)sc1-c1ccnc(Nc2cccc(O)c2)n1 [Compound 116] ? 110 nM

###

biological target: CDK9/cyclin T1 (Homo sapiens); experiment: CDK9 assay (CTD peptide substrate); format: biochemical; settings: Table 3; read-out: Average IC50 CDK9 cyclin T1
pIC50: −log10 of the molar value.
MET means recorded pIC50 is 7 or above; NOT MET means it is below 7.

Examples with answers:
CNc1nc(C)c(-c2ccnc(Nc3cccc(C(F)(F)F)c3)n2)s1 [Compound 75]; NOT MET
Cc1nc(N)sc1-c1ccnc(Nc2cccc(N)c2)n1 [Compound 149]; MET
Cc1nc(NCCO)sc1-c1ccnc(Nc2cccc([N+](=O)[O-])c2)n1 [Compound 144]; MET
Cc1nc(C)c(-c2ccnc(Nc3ccc(N(C)C)cc3)n2)s1 [Compound 103]; NOT MET
Cc1nc(C)c(-c2ccnc(Nc3ccc(N(C)C)c(Cl)c3)n2)s1 [Compound 128]; NOT MET
Cc1nc(C)c(-c2ccnc(Nc3cccc(O)c3)n2)s1 [Compound 27]; NOT MET
Cc1nc(C)c(-c2ccnc(Nc3cccc(NC(=N)N)c3)n2)s1 [Compound 99]; NOT MET
COc1ccc(Nc2nccc(-c3sc(C)nc3C)n2)cc1OC [Compound 125]; NOT MET

Next:
Is pIC50 for Cc1nc(C)c(-c2ccnc(Nc3ccc(F)cc3)n2)s1 [Compound 8] at or above 7? NOT MET

###

biological target: CDK2/Cyclin E (Homo sapiens); construct: His; made in house; host or cells: Sf9 insect cells (baculovirus); test: CDK2/cyclin E kinase assay (GST-Rb phosphorylation); type: biochemical; settings: Table 3; read-out: Average IC50 CDK2 cyclin E1
For each entry below, report its IC50 value.
State the value, then name its unit.

For each of the molecules below, note its IC50.
1. Cc1nc(C)c(-c2ccnc(Nc3ccc(O)cc3)n2)s1 [Compound 28]
2. CNc1nc(C)c(-c2ccnc(Nc3ccc(O)c([N+](=O)[O-])c3)n2)s1 [Compound 58]
3. CNc1nc(C)c(-c2ccnc(Nc3cccc(O)c3)n2)s1 [Compound 70]
4. CCNc1nc(C)c(-c2ccnc(Nc3ccc(F)cc3)n2)s1 [Compound 60]
5. Cc1nc(N)sc1-c1ccnc(Nc2ccc([N+](=O)[O-])cc2)n1 [Compound 151]
6. C=CCNc1nc(C)c(-c2ccnc(Nc3ccc(F)cc3)n2)s1 [Compound 67]

1. 280 nM
2. 1500 nM
3. 270 nM
4. 510 nM
5. 180 nM
6. 1300 nM

Can you give me IC50 for all of these, one by one?
1. CCCCNc1nc(C)c(-c2ccnc(Nc3ccc(F)cc3)n2)s1 [Compound 139]
2. CNc1nc(C)c(-c2ccnc(Nc3cccc(F)c3)n2)s1 [Compound 87]
3. Cc1nc(C)c(-c2ccnc(Nc3cccc(F)c3)n2)s1 [Compound 22]

["1700 nM", "1300 nM", "220 nM"]

###

Target: CDK7/cyclin H (Homo sapiens)
Sequence (P50613 whole entry): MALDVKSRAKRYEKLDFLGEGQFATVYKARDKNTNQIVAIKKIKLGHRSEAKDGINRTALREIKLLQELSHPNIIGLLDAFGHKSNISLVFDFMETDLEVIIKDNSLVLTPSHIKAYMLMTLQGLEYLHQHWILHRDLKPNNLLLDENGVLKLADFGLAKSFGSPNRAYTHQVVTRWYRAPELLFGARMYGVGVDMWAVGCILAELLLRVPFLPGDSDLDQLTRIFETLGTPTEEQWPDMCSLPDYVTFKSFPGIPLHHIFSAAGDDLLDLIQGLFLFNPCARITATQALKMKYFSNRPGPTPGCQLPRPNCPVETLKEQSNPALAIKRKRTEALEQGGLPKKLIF
Sequence (P51946 whole entry partner): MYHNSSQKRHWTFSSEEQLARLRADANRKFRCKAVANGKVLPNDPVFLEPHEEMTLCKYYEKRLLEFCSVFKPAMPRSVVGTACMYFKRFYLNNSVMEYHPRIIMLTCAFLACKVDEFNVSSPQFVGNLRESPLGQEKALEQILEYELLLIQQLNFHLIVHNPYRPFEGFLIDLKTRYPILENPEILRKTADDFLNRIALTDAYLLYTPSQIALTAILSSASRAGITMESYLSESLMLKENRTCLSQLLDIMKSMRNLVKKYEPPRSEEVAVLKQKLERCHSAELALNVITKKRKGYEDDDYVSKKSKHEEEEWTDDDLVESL
Assay: CDK7 assay (CTD peptide substrate)
Format: biochemical
Conditions: Table 4; read-out: Kinase Inhibition IC50 CDK7-cyclin H
Description: CTD peptide substrate (biotinyl-Ahx-(Tyr-Ser-Pro-Thr-Ser-Pro-Ser)4-NH2; 1-2 mg/mL) and recombinant human CDK7/cyclin H, CDK9/cyclin T1, or CDK9/cyclin K (0.5-2 μg) were incubated for 45 min at 30° C. in the presence of varying amounts of test compound in 20 mM MOPS pH 7.2, 25 mM β-glycerophosphate, 5 mM EGTA, 1 mM DTT, 1 mM sodium vanadate, 15 mM MgCl2, and 100 μM ATP (containing a trace amount of ^32PγATP) in a total volume of 25 μL in a 96-well microtiter plate. […]
quantity: IC50 (nM)
One number for each entry, in nM.

Here are 5 molecules together with their reported answers.
Cc1c(-c2ccnc(Nc3cccc([N+](=O)[O-])c3)n2)sc(=O)n1C; 120
Cc1c(-c2ccnc(Nc3ccc(F)c([N+](=O)[O-])c3)n2)sc(=O)n1C; 1100
Cc1ccc(Nc2nccc(-c3sc(=O)n(C)c3C)n2)cc1[N+](=O)[O-]; 1.2
COc1ccc(Nc2nccc(-c3sc(=O)n(C)c3C)n2)cc1; 2000
Cc1c(-c2ccnc(Nc3ccc(N(C)C)cc3)n2)sc(=O)n1C; 1800

For the 2 molecules below, give their IC50 values.
1. Cc1c(-c2ccnc(Nc3ccc(Cl)cc3)n2)sc(=O)n1C
2. Cc1c(-c2ccnc(Nc3cccc(O)c3)n2)sc(=O)n1C

1. 8700
2. 1300
